Biological target: T1, nSR100 (Mus musculus, UniProt Q8BKA3)
T1 construct: host or cells: mouse N2A cells
T1 sequence (Q8BKA3 1-608): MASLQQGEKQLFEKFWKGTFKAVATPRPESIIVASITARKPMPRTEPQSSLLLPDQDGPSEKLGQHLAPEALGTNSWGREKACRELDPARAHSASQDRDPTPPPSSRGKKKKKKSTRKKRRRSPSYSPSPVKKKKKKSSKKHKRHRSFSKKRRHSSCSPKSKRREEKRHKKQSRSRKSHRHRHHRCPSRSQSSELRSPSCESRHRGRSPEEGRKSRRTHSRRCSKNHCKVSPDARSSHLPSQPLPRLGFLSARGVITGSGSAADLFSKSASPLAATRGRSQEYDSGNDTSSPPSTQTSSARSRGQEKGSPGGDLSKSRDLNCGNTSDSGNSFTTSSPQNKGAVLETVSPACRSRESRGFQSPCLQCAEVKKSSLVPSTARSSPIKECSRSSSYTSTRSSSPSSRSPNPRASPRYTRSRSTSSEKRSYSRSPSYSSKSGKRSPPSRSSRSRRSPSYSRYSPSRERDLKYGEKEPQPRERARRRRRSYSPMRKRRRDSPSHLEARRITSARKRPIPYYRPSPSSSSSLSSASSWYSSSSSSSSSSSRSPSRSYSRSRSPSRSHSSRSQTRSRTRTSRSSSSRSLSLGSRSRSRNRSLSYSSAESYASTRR
Experiment: AP-MS nSR100 interaction partners from mouse N2A cells (Table 5)
Assay type: binding
Details: bait Srrm4
READOUT_KIND: AvgP (average of the SAINT scores)
Please state the value as a number alone, without comment.

## Input Name the recorded AvgP (average of the SAINT scores) for Rab5c (protein, UniProt P35278 1-216, looked up) Ras-related protein Rab-5C: MAGRGGAARPNGPAAGNKICQFKLVLLGESAVGKSSLVLRFVKGQFHEYQESTIGAAFLTQTVCLDDTTVKFEIWDTAGQERYHSLAPMYYRGAQAAIVVYDITNTDTFARAKNWVKELQRQASPNIVIALAGNKADLASKRAVEFQEAQAYADDNSLLFMETSAKTAMNVNEIFMAIAKKLPKNEPQNAAGAPGRTRGVDLQESNPASRSQCCSN .
## Output 0.97

FYI, the data here is from patent US10772928B2.
